target: purified recombinant human insulin receptor-exon 11 (human); assay: competition with 125I-insulin (SPA)
Assay readout: IR, binding relative to human insulin (%)

[P] single-chain insulin PAK 1877, connecting peptide TGLGSGK [B28D_A18Q] (from UniProt P01308 25-53; P01308 90-110) (ligand)
[Q] single-chain insulin PAK 1769020, connecting peptide SVGSSSGK [A18Q_A21G] (from UniProt P01308 25-53; P01308 90-110) (ligand)
// query When their IR, binding relative to human insulin values are compared, which is larger, P or Q ? State your choice using its label.
// result P

[I] single-chain insulin PAK 1878, connecting peptide VGLSSGQ [B3K_A18K_A21G] (from UniProt P01308 25-53; P01308 90-110) (ligand)
[II] single-chain insulin PAK 1733, connecting peptide VGSSSGK [A21G] (from UniProt P01308 25-53; P01308 90-110) (ligand)
// query Looking only at measured IR, binding relative to human insulin, which entry is lower, I or II ? State your choice using its label.
// result II
(II: 42%, I: 172%)

[A] single-chain insulin PAK 1892, connecting peptide TGLGSGQ [desB1_B3Q_B10A_A18Q] (from UniProt P01308 26-53; P01308 90-110) (ligand)
[B] single-chain insulin PAK 1860, connecting peptide VGSSSGK [B3K_A18Q_A21G] (from UniProt P01308 25-53; P01308 90-110) (ligand)
// query Looking only at measured IR, binding relative to human insulin, which entry is lower, A or B ? State your choice using its label.
// result A
(A: 38%, B: 83%)

[A] single-chain insulin with connecting peptide QGSSGK (SEQ ID NO:115), no PAK number printed (from UniProt P01308 25-53; P01308 90-110) (ligand)
[B] single-chain insulin PAK 1805, connecting peptide AGRGSGK [B3Q_A18Q_A21G] (from UniProt P01308 25-53; P01308 90-110) (ligand)
[C] single-chain insulin PAK 1880, connecting peptide VGLSSGQ [B1G_B3Q_A18Q_A21G] (from UniProt P01308 25-53; P01308 90-110) (ligand)
// query Rank ascending by IR, binding relative to human insulin. Lab note: record answer as labels in requested order.
// result A, C, B

* * *

target: purified recombinant human insulin receptor-exon 11 (human) (UniProt P06213); assay: competition with 125I-insulin (SPA)
Sequence (P06213 other isoform, or with tags, fused parts or gaps limits assumed, form in doubt): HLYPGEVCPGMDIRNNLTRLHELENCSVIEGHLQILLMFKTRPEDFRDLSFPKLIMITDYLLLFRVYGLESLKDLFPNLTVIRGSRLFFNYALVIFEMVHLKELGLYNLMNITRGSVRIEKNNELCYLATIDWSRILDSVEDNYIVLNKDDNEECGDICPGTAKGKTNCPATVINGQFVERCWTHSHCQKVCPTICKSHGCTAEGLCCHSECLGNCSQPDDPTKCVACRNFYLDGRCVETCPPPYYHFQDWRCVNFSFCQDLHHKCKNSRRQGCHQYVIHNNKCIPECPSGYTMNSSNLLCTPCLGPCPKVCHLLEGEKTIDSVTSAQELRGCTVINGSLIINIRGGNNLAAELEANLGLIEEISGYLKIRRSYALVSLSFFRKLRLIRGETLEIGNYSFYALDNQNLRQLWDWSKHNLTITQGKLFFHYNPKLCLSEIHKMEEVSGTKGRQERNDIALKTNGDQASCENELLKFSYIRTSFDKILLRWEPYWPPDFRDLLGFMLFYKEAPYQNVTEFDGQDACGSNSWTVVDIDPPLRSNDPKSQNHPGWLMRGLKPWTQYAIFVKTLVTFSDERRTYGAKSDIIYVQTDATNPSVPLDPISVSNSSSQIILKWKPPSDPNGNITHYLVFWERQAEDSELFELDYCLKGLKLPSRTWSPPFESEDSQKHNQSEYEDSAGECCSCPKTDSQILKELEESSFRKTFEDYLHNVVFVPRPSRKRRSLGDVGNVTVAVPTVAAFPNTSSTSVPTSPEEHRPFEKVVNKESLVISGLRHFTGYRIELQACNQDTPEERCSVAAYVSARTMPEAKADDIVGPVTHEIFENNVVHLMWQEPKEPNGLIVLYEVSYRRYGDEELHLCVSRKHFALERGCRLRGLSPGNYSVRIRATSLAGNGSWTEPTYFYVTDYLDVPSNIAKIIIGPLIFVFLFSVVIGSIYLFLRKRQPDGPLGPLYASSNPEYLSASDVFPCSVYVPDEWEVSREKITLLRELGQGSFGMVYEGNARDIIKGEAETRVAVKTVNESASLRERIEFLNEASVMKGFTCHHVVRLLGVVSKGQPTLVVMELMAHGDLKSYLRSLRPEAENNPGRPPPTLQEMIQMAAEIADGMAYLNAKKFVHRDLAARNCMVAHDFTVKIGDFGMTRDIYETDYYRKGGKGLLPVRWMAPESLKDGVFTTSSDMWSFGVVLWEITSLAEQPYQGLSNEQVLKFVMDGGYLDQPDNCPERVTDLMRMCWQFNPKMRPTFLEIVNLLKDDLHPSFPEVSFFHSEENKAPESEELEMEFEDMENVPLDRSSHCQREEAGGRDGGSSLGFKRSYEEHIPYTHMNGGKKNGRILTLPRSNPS
Assay readout: IR, binding relative to human insulin (%)

[A] single-chain insulin with connecting peptide LGSSGK (SEQ ID NO:113), no PAK number printed (from UniProt P01308 25-53; P01308 90-110) (ligand)
[B] single-chain insulin PAK 1818, connecting peptide KGLGSGQ [B3Q_B29R_A18Q_A21G] (from UniProt P01308 25-53; P01308 90-110) (ligand)
[C] single-chain insulin PAK 1891, connecting peptide TGLGSGQ [B10A_A18Q] (from UniProt P01308 25-53; P01308 90-110) (ligand)
// query Sort the 3 substances by IR, binding relative to human insulin; largest first, smallest last. Lab note: record answer as labels in requested order.
// result B, A, C
(B: 125%, A: 49%, C: 34%)

[A] single-chain insulin with connecting peptide QGSSGK (SEQ ID NO:110), no PAK number printed (from UniProt P01308 25-53; P01308 90-110) (ligand)
[B] single-chain insulin PAK 1847, connecting peptide TGLGKGR [B27E_B29A_A18Q] (from UniProt P01308 25-53; P01308 90-110) (ligand)
[C] single-chain insulin PAK 1784, connecting peptide WASGSGK [A18Q_A21G] (from UniProt P01308 25-53; P01308 90-110) (ligand)
// query Rank ascending by IR, binding relative to human insulin. Lab note: record answer as labels in requested order.
// result C, A, B
(C: 23%, A: 36%, B: 82%)

Data origin: patent US20090170750A1
